target: FGR (Homo sapiens, UniProt P09769); assay: IC50 inhibitory activity against FGR kinase; type: biochemical; conditions: read-out: FGR IC50
Sequence (P09769 whole entry): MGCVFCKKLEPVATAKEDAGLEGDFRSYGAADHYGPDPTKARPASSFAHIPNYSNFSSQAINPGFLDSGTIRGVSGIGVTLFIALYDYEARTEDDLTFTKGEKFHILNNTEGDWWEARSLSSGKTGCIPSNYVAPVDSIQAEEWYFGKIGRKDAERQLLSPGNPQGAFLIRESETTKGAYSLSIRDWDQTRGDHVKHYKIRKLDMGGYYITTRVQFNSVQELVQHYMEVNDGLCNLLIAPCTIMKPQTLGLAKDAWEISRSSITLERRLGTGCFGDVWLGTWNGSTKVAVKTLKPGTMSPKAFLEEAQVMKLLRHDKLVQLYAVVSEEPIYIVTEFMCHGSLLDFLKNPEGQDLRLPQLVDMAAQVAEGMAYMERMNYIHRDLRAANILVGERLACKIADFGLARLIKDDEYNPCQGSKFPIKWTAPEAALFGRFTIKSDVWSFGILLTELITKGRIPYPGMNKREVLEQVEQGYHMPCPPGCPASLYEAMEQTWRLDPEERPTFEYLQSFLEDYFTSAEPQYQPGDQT
test readout: IC50

Form: Entry = Cc1ccc(Nc2ncc3c(n2)N(C)C(=O)N(c2cc(NC(=O)c4ccc5c(c4)N(Cc4ccccc4)C(=O)[C@H](CC(C)C)N=C5c4ccccc4)ccc2C)C3)cn1 [Example 33] | System = FGR (Homo sapiens, UniProt P09769) | IC50 = ____
1 to 200 nM

* * *

target: p38a/MAPK14 (Homo sapiens); assay: IC50 inhibitory activity against p38a/MAPK14 kinase; assay type: biochemical; details: read-out: p38a/MAPK14 IC50
Sequence (Q16539 whole entry): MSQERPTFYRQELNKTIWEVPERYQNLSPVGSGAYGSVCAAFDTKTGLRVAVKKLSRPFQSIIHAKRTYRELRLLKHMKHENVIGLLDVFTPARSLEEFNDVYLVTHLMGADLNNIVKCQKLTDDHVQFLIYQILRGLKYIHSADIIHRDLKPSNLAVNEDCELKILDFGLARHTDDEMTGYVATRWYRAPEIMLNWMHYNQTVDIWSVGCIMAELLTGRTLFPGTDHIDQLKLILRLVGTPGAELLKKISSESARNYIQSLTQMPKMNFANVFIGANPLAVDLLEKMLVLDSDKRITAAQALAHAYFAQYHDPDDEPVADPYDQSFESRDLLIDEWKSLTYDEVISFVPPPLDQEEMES
pIC50: −log10 of the molar value.
test readout: pIC50

Completed entries (count: 3):
Cc1ccc(Nc2ncc3c(n2)N(C)C(=O)N(c2cc(NC(=O)CNC(=O)c4ccc([N+](=O)[O-])c(OCC(C)C)c4)ccc2C)C3)cn1
6.22 to 6.40
Cc1ccc(Nc2ncc3c(n2)N(C)C(=O)N(c2cc(NC(=O)c4ccc5c(c4)N(Cc4ccccc4)C(=O)[C@H](CC(C)C)N=C5c4ccccc4)ccc2C)C3)cn1
< 6.22
COc1ccc(CCOc2cc(C(=O)N[C@@H](C)C(=O)Nc3ccc(C)c(N4Cc5cnc(Nc6ccc(C)nc6)nc5N(C)C4=O)c3)ccc2[N+](=O)[O-])cc1
< 6.22

Field: next compound
Given the entry Cc1ccc(Nc2ncc3c(n2)N(C)C(=O)N(c2cc(NC(=O)c4ccc([N+](=O)[O-])c(OCCc5c[nH]c6ccccc56)c4)ccc2C)C3)cn1 , report its measured pIC50.
6.40 to 6.70
